Target: T1, Brn2 DNA-binding domain (BD-Brn2) (Mus musculus (B6), UniProt P31360 336-435)
T1 sequence: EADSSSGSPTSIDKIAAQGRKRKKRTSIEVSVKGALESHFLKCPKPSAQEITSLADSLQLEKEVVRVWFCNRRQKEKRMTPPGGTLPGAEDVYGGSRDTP
Assay: EMSA; 10% glycerol, 20 mM HEPES pH 7.8, 45 mM KCl, 10 mM NaCl, 1 mM EDTA, 1 mM DTT, 0.2 ug/uL BSA, 0.1% NP-40, 50 ng poly-dIdC; 20 ng each GST protein; room temperature 30 min (heterodimers 4 C); 6% PAGE 0.25x TBE
Details: protein: recombinant; tags: GST (N-terminal, pGEX-6P-1); label: 32P-dCTP fill-in of the 5' (dG)5 overhangs of both strands (Methods; control probes are given with GGG)
attribute.measured: binding result

73 (dsDNA) DNA 1: GGGGGCTTGTCCTCAGCATCTATGGTAACACACAAATCCTGAAGCCCCC DNA 2: GGGGGCTTCAGGATTTGTGTGTTACCATAGATGCTGAGGACAAGCCCCC    no binding
94 (dsDNA) DNA 1: GGGGGATCTGTAAAGGAAATTACTTTGTAGGAAATTTGATGGAACTGCCCCC DNA 2: GGGGGCAGTTCCATCAAATTTCCTACAAAGTAATTTCCTTTACAGATCCCCC    binds
66 (dsDNA) DNA 1: GGGGGGGAACTCCCTTAAATTTGGTTTGTTTATGTGTCCCCC DNA 2: GGGGGACACATAAACAAACCAAATTTAAGGGAGTTCCCCCCC    no binding
107 (dsDNA) DNA 1: GGGGGACTAGTTTTCTATTACTACAAATCTCAACTCCCCC DNA 2: GGGGGAGTTGAGATTTGTAGTAATAGAAAACTAGTCCCCC    no binding
